Biological target: T1, human FcRH5 protein fragment (soluble) (human, UniProt Q96RD9 16-851)
T1 construct: whole entry named; also called soluble human FcRH5; Human FcRH5 (BIACORE analyte)
T1 sequence: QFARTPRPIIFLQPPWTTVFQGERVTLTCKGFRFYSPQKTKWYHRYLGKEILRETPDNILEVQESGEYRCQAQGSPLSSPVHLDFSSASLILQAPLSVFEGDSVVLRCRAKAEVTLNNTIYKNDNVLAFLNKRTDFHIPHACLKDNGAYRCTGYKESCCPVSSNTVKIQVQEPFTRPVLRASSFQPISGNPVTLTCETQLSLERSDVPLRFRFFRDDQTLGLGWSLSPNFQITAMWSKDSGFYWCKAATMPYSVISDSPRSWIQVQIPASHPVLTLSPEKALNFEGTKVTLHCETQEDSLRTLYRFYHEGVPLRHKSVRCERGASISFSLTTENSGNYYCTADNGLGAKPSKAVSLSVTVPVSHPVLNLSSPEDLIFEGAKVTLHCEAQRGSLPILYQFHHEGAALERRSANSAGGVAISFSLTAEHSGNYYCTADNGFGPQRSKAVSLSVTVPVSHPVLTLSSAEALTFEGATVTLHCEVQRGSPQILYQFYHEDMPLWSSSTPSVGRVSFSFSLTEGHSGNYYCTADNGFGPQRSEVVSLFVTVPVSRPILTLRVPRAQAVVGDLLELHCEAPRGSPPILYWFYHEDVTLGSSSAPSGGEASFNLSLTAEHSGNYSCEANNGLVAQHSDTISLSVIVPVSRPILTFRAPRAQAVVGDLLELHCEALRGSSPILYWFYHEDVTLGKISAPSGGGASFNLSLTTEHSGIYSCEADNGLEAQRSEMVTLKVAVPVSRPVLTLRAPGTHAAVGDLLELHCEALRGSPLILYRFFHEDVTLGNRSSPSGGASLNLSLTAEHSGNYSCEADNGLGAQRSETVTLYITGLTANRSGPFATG
Test: SPR, hIgG capture, screening
measurement-type: pKd
Kindly note that pKd refers to -log10 of the concentration in mol/L and answer with the value alone.

hu1G7.v1 heavy chain W52H with light chain of hu1G7.v1.7 (antibody, V domains shown, human IgG) VH: EVQLVESGPGLVKPSETLSLTCTVSGFSLTRFGVHWVRQPPGKGLEWLGVIHRGGSTDYNAAFMSRLTISKDNSKNQVSLKLSSVTAADTAVYYCSNHYYGSSDYALDNWGQGTLVTVSS VL: DIQMTQSPSSLSASVGDRVTITCKASQDVRNLVVWFQQKPGKAPKLLIYSGYYRYTGVPSRFSGSGSGTDFTLTISSLQPEDFATYYCQQHYQPPYTFGQGTKVEIK = 7.05
hu1G7.v1 heavy chain W52H with light chain of hu1G7.v1.3 (antibody, V domains shown, human IgG) VH: EVQLVESGPGLVKPSETLSLTCTVSGFSLTRFGVHWVRQPPGKGLEWLGVIHRGGSTDYNAAFMSRLTISKDNSKNQVSLKLSSVTAADTAVYYCSNHYYGSSDYALDNWGQGTLVTVSS VL: DIQMTQSPSSLSASVGDRVTITCKASQDVRNIVVWFQQKPGKAPKLLIYSGSYRYSGVPSRFSGSGSGTDFTLTISSLQPEDFATYYCQQQYSPPYTFGQGTKVEIK = 7.18
hu1G7.v1 heavy chain W52Y with light chain of hu1G7.v1.5 (antibody, V domains shown, human IgG) VH: EVQLVESGPGLVKPSETLSLTCTVSGFSLTRFGVHWVRQPPGKGLEWLGVIYRGGSTDYNAAFMSRLTISKDNSKNQVSLKLSSVTAADTAVYYCSNHYYGSSDYALDNWGQGTLVTVSS VL: DIQMTQSPSSLSASVGDRVTITCKASQDVSNIVVWFQQKPGKSPKLLIYSGYYRYTGVPSRFSGSGSGTDFTLTISSLQPEDFATYYCQQQFQPPYTFGQGTKVEIK = 6.74
hu1G7.v1 heavy chain W52H with light chain of hu1G7.v1.4 (antibody, V domains shown, human IgG) VH: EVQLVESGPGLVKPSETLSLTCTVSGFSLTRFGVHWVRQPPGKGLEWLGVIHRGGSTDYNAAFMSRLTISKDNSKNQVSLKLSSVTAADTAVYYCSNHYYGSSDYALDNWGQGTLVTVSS VL: DIQMTQSPSSLSASVGDRVTITCKASQDVRNLVVWFQQKPGKAPKLLIYSGSYRYSGVPSRFSGSGSGTDFTLTISSLQPEDFATYYCQQHYSPPYTFGQGTKVEIK = 7.22

// Input: hu1G7.v1 heavy chain M64F with light chain of hu1G7.v1 (antibody, V domains shown, human IgG) VH: EVQLVESGPGLVKPSETLSLTCTVSGFSLTRFGVHWVRQPPGKGLEWLGVIWRGGSTDYNAAFFSRLTISKDNSKNQVSLKLSSVTAADTAVYYCSNHYYGSSDYALDNWGQGTLVTVSS VL: DIQMTQSPSSLSASVGDRVTITCKASQDVSNIVVWFQQKPGKSPKLLIYSASYRYTGVPSRFSGSGSGTDFTLTISSLQPEDFATYYCQQHYSSPYTFGQGTKVEIK . Output its pKd only.
7.59

Hello, please tell me recorded pKd for this one: hu1G7.v1 heavy chain M64I with light chain of hu1G7.v1 (antibody, V domains shown, human IgG) VH: EVQLVESGPGLVKPSETLSLTCTVSGFSLTRFGVHWVRQPPGKGLEWLGVIWRGGSTDYNAAFISRLTISKDNSKNQVSLKLSSVTAADTAVYYCSNHYYGSSDYALDNWGQGTLVTVSS VL: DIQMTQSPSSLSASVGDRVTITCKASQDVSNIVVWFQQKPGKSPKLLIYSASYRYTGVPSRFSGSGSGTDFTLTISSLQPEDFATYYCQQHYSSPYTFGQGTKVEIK
7.52

Answer with reported pKd of hu1G7.v1 heavy chain W52Y with light chain of hu1G7.v1 (antibody, V domains shown, human IgG) VH: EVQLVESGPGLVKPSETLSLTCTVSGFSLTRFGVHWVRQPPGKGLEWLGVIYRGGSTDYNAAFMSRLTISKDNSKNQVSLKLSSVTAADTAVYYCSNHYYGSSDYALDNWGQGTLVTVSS VL: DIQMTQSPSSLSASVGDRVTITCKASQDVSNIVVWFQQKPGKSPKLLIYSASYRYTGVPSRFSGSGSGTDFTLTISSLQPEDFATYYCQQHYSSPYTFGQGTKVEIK
6.82

Consider the binder hu1G7.v1 heavy chain W52L with light chain of hu1G7.v1.4 (antibody, V domains shown, human IgG) VH: EVQLVESGPGLVKPSETLSLTCTVSGFSLTRFGVHWVRQPPGKGLEWLGVILRGGSTDYNAAFMSRLTISKDNSKNQVSLKLSSVTAADTAVYYCSNHYYGSSDYALDNWGQGTLVTVSS VL: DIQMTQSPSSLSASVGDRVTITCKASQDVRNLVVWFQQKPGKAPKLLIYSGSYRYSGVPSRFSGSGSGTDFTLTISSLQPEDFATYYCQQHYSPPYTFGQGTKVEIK . State its measured pKd.
7.04

Give the reported pKd for this binder. hu1G7.v1 heavy chain M64L with light chain of hu1G7.v1.6 (antibody, V domains shown, human IgG) VH: EVQLVESGPGLVKPSETLSLTCTVSGFSLTRFGVHWVRQPPGKGLEWLGVIWRGGSTDYNAAFLSRLTISKDNSKNQVSLKLSSVTAADTAVYYCSNHYYGSSDYALDNWGQGTLVTVSS VL: DIQMTQSPSSLSASVGDRVTITCKASQDVSNIVVWFQQKPGKAPKLLIYSGYYRYSGVPSRFSGSGSGTDFTLTISSLQPEDFATYYCQQQYQPPYTFGQGTKVEIK
8.59

Entry hu1G7.v85 (hIgG1) (antibody, V domains shown, bivalent hIgG1; also called hu1G7.v1.4.M64V) VH: EVQLVESGPGLVKPSETLSLTCTVSGFSLTRFGVHWVRQPPGKGLEWLGVIWRGGSTDYNAAFVSRLTISKDNSKNQVSLKLSSVTAADTAVYYCSNHYYGSSDYALDNWGQGTLVTVSS VL: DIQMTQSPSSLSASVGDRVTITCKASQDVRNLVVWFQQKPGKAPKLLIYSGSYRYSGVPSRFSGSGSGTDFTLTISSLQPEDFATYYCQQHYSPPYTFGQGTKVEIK needs its pKd filled in; supply it.
8.60
